System: LPESG (Abz-LPESGK(Dnp)-CONH2)
experimental_protocol: In vitro sortase kinetics HPLC assay, LPESG substrate
Format: biochemical
applied_conditions: substrate 4S (LPESG); 10 mM GGG
property: kcat, 10 mM GGG (Hz)
Reply with just the number (in Hz).

| molecule | unit_annotation | kcat, 10 mM GGG (Hz) |
| --- | --- | --- |
| 4S.6C: 5mut + N98D A104V A118T F122A K134R I182V E189F (protein) QAKPQIPKDKSKVAGYIEIPDADIKEPVYPGPATREQLDRGVSFVEENESLDDQNISITGHTAIDRPNYQFTNLRAAKKGSMVYFKVGNETRKYKMTSIRNVKPTAVEVLDEQKGKDKQLTLVTCDDYNFETGVWETRKIFVATEVK | Hz | 0.6657 |
| eSrtA(4S-3.5) (protein) QAKPQIPKDKSKVAGYIEIPDADIKEPVYPGPATREQLNRGVSFTEENESLDDQNISITGHTFIDRPNYQFTNLKAAKKGSMVYFKVGNETRKYKMTSIRNVKPTAVEVLDEQKGKDKQLTLVTCDDYNEETGVWETRKIFVATEVK | Hz | 1.118 |
| eSrtA(4S-5): 5mut + N98D A104V A118T F122A K134R I182V (protein) QAKPQIPKDKSKVAGYIEIPDADIKEPVYPGPATREQLDRGVSFVEENESLDDQNISITGHTAIDRPNYQFTNLRAAKKGSMVYFKVGNETRKYKMTSIRNVKPTAVEVLDEQKGKDKQLTLVTCDDYNEETGVWETRKIFVATEVK | Hz | 0.3877 |

Item under review: 4S.6B: 5mut + N98D A104V A118S F122A K134P I182V E189P (protein) QAKPQIPKDKSKVAGYIEIPDADIKEPVYPGPATREQLDRGVSFVEENESLDDQNISISGHTAIDRPNYQFTNLPAAKKGSMVYFKVGNETRKYKMTSIRNVKPTAVEVLDEQKGKDKQLTLVTCDDYNPETGVWETRKIFVATEVK . Reported kcat, 10 mM GGG (Hz)?
1.242

Can you check eSrtA (protein) QAKPQIPKDKSKVAGYIEIPDADIKEPVYPGPATREQLNRGVSFAEENESLDDQNISIAGHTFIDRPNYQFTNLKAAKKGSMVYFKVGNETRKYKMTSIRNVKPTAVEVLDEQKGKDKQLTLITCDDYNEETGVWETRKIFVATEVK next?
1.74

Can you check eSrtA(4S-4): 5mut + A104V A118T F122S I182V (protein) QAKPQIPKDKSKVAGYIEIPDADIKEPVYPGPATREQLNRGVSFVEENESLDDQNISITGHTSIDRPNYQFTNLKAAKKGSMVYFKVGNETRKYKMTSIRNVKPTAVEVLDEQKGKDKQLTLVTCDDYNEETGVWETRKIFVATEVK next?
0.7269

Can you check 4S.6A: 5mut + N98D A104V A118S F122A K134G I182V E189V (protein) QAKPQIPKDKSKVAGYIEIPDADIKEPVYPGPATREQLDRGVSFVEENESLDDQNISISGHTAIDRPNYQFTNLGAAKKGSMVYFKVGNETRKYKMTSIRNVKPTAVEVLDEQKGKDKQLTLVTCDDYNVETGVWETRKIFVATEVK next?
0.9537

Provenance of the data: patent US10202593B2
